Recorded values, source patent US20250027068.

- Subject of test: pooled human IgG
Measurement name: Enzyme Activity Endpoint Assay: scIgG (ng/µL)
Numbers only; they are read as ng/µL.

Exercise: Query (protein): PRT-286 (protein) MVTSVWTKGVTPPAKFTQGEDVFHAPYDANQGWYDITKTFNGKDDLLCGAATAGNMLHWWFDQNKEKIEAYLKKHPDKQKIMFGDQELLDVRKVINTKGDQTNSELFNYFRDKAFPNLSARRIGVMPDLVLDMFINGYYLNVYKTQTTDVNRTYQEKDRRGGIFDAVFTRGDQSKLLTSRHDFKEKNLKEISDLIKKELTEGKALGLSHTYANVRISHVINLWGADFDSNGNLKAIYVTDSDSNASIGMKKYFVGVNSSGKVAISAKEIKEDNIGAQVLGLFTLSTGQDSWNQTN ; field requested: Enzyme Activity Endpoint Assay: scIgG
Key: 0

Exercise: Query (protein): PRT-36 (protein) MANQEIRYSEVTPYHVTSVWTKGVTPPANFTQGEDVFHAPYVANQGWYDITKTFNGKDDLLCGAATAGNMLHWWFDQNKDQIKRYLEEHPEKQKINFNGEQMFDVKEAIDTKNHQTDSKLFEYFKEKAFPYLSTKHLGVFPDHVIDMFINGYRLSLTNHGPTPVKEGSKDPRGGIFDAVFTRGDQSKLLTSRHDFKEKNLKEISDLIKKELTEGKALGLSHTYANVRINHVINLWGADFDSNGNLKAIYVTDSDSNASIGMKKYFVGVNSAGKVAISAKEIKEDNIGAQVLGLFTLSTGQDSWNQTN ; field requested: Enzyme Activity Endpoint Assay: scIgG
Key: 16

Exercise: Query (protein): PRT-35 (protein) MANQEIRYSEVTPYHVTSVWTKGVTPPANFTQGEDVFHAPYVANQGWYDITKTFNGKDDLLCGAATAGNMLHWWFDQNKDQIKRYLEEHPEKQKINFNGEQMFDVKEAIDTKDHQLDSKLFEYFKEKAFPYLSTKHLGVFPDHVIDMFINGYRLSLTNHGPTPVKEGSKDPRGGIFDAVFTRGDQSKLLTSRHDFKEKNLKEISDLIKKELTEGKALGLSHTYANVRINHVINLWGADFDSNGNLKAIYVTDSDSNASIGMKKYFVGVNSAGKVAISAKEIKEDNIGAQVLGLFTLSTGQDSWNQTN ; field requested: Enzyme Activity Endpoint Assay: scIgG
Key: 14
